Source listed as patent US11229636B2.

Molecular target: RORγ LBD (Homo sapiens (Human), UniProt P51449)
Sequence (P51449 268-518): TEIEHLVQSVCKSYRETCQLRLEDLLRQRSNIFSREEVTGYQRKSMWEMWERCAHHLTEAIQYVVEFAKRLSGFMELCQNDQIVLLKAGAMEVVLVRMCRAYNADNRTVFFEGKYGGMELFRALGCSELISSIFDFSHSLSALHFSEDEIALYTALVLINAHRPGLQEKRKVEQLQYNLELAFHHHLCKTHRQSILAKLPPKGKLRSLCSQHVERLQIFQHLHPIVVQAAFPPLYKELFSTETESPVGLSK
Test: ROR gamma radio-ligand binding assay (3H 25-Hydroxycholesterol competitive displacement, dextran charcoal method)
Details: 10 μM compound
assay_endpoint: inhibition at 10 µM (%)

Record excerpt, results attached:
{"compound": "CCS(=O)(=O)c1ccc(CC(=O)Nc2ccc3c(n2)CCC(C)(c2nc(C)cn4ccnc24)C3=O)cc1 (stereo not drawn)", "unit_abbrev": "%", "inhibition at 10 µM": 93}
{"compound": "CCc1ccc(C2(C)CCc3nc(NC(=O)Cc4ccc(S(=O)(=O)CC)cc4)ccc3C2=O)nn1 (stereo not drawn)", "unit_abbrev": "%", "inhibition at 10 µM": 82}
{"compound": "CCS(=O)(=O)c1ccc(CC(=O)Nc2cc(C)c3c(n2)CCC(C)(c2cc(C)nc(OC)n2)C3=O)cc1 (stereo not drawn)", "unit_abbrev": "%", "inhibition at 10 µM": 104}
{"compound": "CCS(=O)(=O)c1ccc(CC(=O)Nc2ccc3c(n2)CCC(C)(n2nc(C)cc2C)C3=O)cc1 (stereo not drawn)", "unit_abbrev": "%", "inhibition at 10 µM": 92}

(a) CCc1cc(C2(C)CCc3nc(NC(=O)Cc4ccc(S(=O)(=O)CC)cc4)ccc3C2=O)nc(CC)n1 (stereo not drawn)
(b) CCc1cc(C2(C)CCc3nc(NC(=O)Cc4ccc(S(=O)(=O)CC)cc4)ccc3C2=O)nc(C)n1 (stereo not drawn)
Ask: Sorting ascending by inhibition at 10 µM, which comes first: a or b ? Please indicate the selected item by its label.
Reply: b
(b: 42%, a: 109%)

====

Molecular target: RORγ LBD (Homo sapiens (Human), UniProt P51449)
Assay: ROR gamma radio-ligand binding assay (3H 25-Hydroxycholesterol competitive displacement, dextran charcoal method)
Settings: 10 μM compound
assay_endpoint: inhibition at 10 µM (%)

{"compound": "CCS(=O)(=O)c1ccc(CC(=O)Nc2cc(C)c3c(n2)CCC(C)(c2nccc(OC)n2)C3=O)cc1 (stereo not drawn)", "result_number": 92}

(P) CCS(=O)(=O)c1ccc(CC(=O)Nc2cc(C)c3c(n2)CCC(C)(c2ccc(C)nn2)C3=O)cc1 (stereo not drawn)
(Q) CCC1(c2nccn3ccnc23)CCc2nc(NC(=O)Cc3ccc(S(=O)(=O)CC)cc3)ccc2C1=O (stereo not drawn)
Ask: Sorting ascending by inhibition at 10 µM, which comes first: P or Q ? Please indicate the selected item by its label.
Reply: Q

====

Molecular target: ROR gamma ligand binding domain (Homo sapiens (Human))
Sequence (P51449 269-508): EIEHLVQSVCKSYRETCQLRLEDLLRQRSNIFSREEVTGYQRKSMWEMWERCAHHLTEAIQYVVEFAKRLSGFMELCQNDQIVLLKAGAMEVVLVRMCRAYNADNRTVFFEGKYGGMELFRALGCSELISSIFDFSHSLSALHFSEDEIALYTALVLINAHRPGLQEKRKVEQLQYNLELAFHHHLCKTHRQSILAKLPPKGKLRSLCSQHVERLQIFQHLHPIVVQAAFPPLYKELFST
Test: ROR gamma luciferase reporter assay (GAL4-ROR gamma LBD, HEK293 cells)
Type: cell-based
Details: 48 hours treatment, read-out: RORγ luciferase Reporter assay: IC50 (nM) (in range)
assay_endpoint: IC50

Record excerpt, results attached:
{"compound": "CCS(=O)(=O)c1ccc(CC(=O)Nc2ccc3c(n2)CCC(C)(c2nccn4c(C5CC5)cnc24)C3=O)cc1 (stereo not drawn)", "result": "100 to 500 nM"}
{"compound": "CCS(=O)(=O)c1ccc(CC(=O)Nc2ccc3c(n2)CCC(C)(c2cc(C)nc(OC)n2)C3=O)cc1 (stereo not drawn)", "result": "< 100 nM"}
{"compound": "CCS(=O)(=O)c1ccc(CC(=O)Nc2cc(C)c3c(n2)CCC(C)(c2cc(C)c(OC)nn2)C3=O)cc1 (stereo not drawn)", "result": "100 to 500 nM"}
{"compound": "CCS(=O)(=O)c1ccc(CC(=O)Nc2ccc3c(n2)CCC(C)(c2cc(C)nc(C)n2)C3=O)nc1 (single isomer, unassigned) [compound 124]", "result": "100 to 500 nM"}
{"compound": "CCS(=O)(=O)c1ccc(CC(=O)Nc2ccc3c(n2)CC(C)C(c2ncccc2O)C3=O)cc1 (stereo not drawn)", "result": "> 500 nM"}
{"compound": "CCS(=O)(=O)c1ccc(CC(=O)Nc2cc(C)c3c(n2)CCC(C)(c2ccc(OC)[n+]([O-])n2)C3=O)cc1 (stereo not drawn)", "result": "> 500 nM"}
{"compound": "CCS(=O)(=O)c1ccc(CC(=O)Nc2cc(C)c3c(n2)CCC(C)(c2nc(C)cc(C)n2)C3=O)cc1 (stereo not drawn)", "result": "< 100 nM"}
{"compound": "CCS(=O)(=O)c1ccc(CC(=O)Nc2ccc3c(n2)CCC(C)(c2cc(C)nc(C)n2)C3=O)cc1 (single isomer, unassigned) [compound 104]", "result": "100 to 500 nM"}

Ask: What does the record list as IC50 for CCS(=O)(=O)c1ccc(CC(=O)Nc2ccc3c(n2)CCC(C)(c2nc(C)cn4ccnc24)C3=O)cc1 (single isomer, unassigned) [compound 117] ?
Reply: > 500 nM

Ask: What does the record list as IC50 for CCS(=O)(=O)c1ccc(CC(=O)Nc2ccc3c(n2)CCC(C)(c2ccc(OC)nc2)C3=O)cc1 (stereo not drawn) ?
Reply: 100 to 500 nM

Ask: What does the record list as IC50 for CCS(=O)(=O)c1ccc(CC(=O)Nc2cc(C)c3c(n2)CCC(C)(c2nccc(OC)n2)C3=O)cc1 (stereo not drawn) ?
Reply: < 100 nM

Ask: What does the record list as IC50 for CCS(=O)(=O)c1ccc(CC(=O)Nc2cc(C)c3c(n2)CCC(C)(c2nccn4ccnc24)C3=O)cc1 (stereo not drawn) ?
Reply: 100 to 500 nM

Ask: What does the record list as IC50 for CCS(=O)(=O)c1ccc(CC(=O)Nc2cc(C)c3c(n2)CCC(C)(c2ccc(N(C)C)nn2)C3=O)cc1 (stereo not drawn) ?
Reply: 100 to 500 nM

Ask: What does the record list as IC50 for CCS(=O)(=O)c1ccc(CC(=O)Nc2ccc3c(n2)CCC(C)(c2ccc(C(C)C)nn2)C3=O)cc1 (stereo not drawn) ?
Reply: > 500 nM

Ask: What does the record list as IC50 for CCS(=O)(=O)c1ccc(CC(=O)Nc2cc(C)c3c(n2)CCC(C)(c2ccc(C)nn2)C3=O)cc1 (stereo not drawn) ?
Reply: > 500 nM

Ask: What does the record list as IC50 for CCS(=O)(=O)c1ccc(CC(=O)Nc2ccc3c(n2)CC(C)(C)C(c2ccc(O)cn2)C3=O)cc1 (stereo not drawn) ?
Reply: > 500 nM

Ask: What does the record list as IC50 for CCS(=O)(=O)c1ccc(CC(=O)Nc2ccc3c(n2)CC(C)C(c2cc(C)nc(C)n2)C3=O)cc1 (stereo not drawn) ?
Reply: > 500 nM

Ask: What does the record list as IC50 for CCS(=O)(=O)c1ccc(CC(=O)Nc2ccc3c(n2)CCC(C)(c2cc(OC)nc(C)n2)C3=O)cc1 (single isomer, unassigned) [compound 115] ?
Reply: < 100 nM

Ask: What does the record list as IC50 for CCS(=O)(=O)c1ccc(CC(=O)Nc2ccc3c(n2)CCC(C)(c2ccc(Cl)nn2)C3=O)cc1 (stereo not drawn) ?
Reply: > 500 nM

Ask: What does the record list as IC50 for CCS(=O)(=O)c1ccc(CC(=O)Nc2cc(C)c3c(n2)CCC(C)(c2cc(C)nc(C)n2)C3=O)cc1 (single isomer, unassigned) [compound 108] ?
Reply: > 500 nM

Ask: What does the record list as IC50 for CCS(=O)(=O)c1ccc(CC(=O)Nc2ccc3c(n2)CCC(C)(c2nc(C)cn4ccnc24)C3=O)cc1 (single isomer, unassigned) [compound 118] ?
Reply: < 100 nM

====

Biological target: UniProt P51449
Assay: ROR gamma radio-ligand binding assay (3H 25-Hydroxycholesterol competitive displacement, dextran charcoal method)
Details: 10 μM compound
assay_endpoint: RORγ ligand binding assay: % inhibition @ 10 μM (%)

(I) CCS(=O)(=O)c1ccc(CC(=O)Nc2cc(C)c3c(n2)CCC(C)(c2cc(C)nc(C)n2)C3=O)cc1 (single isomer, unassigned) [compound 108]
(II) CCS(=O)(=O)c1ccc(CC(=O)Nc2ccc3c(n2)CCC(C)(c2cc(C)nc(C)n2)C3=O)cc1 (single isomer, unassigned) [compound 103]
(III) CCS(=O)(=O)c1ccc(CC(=O)Nc2ccc3c(n2)CCC(C)(c2cc(C)nc(C)n2)C3=O)cc1 (single isomer, unassigned) [compound 104]
Ask: Arrange the 3 molecules by rising RORγ ligand binding assay: % inhibition @ 10 μM, starting with the smallest. A ranking is expressed here by listing the labels in the requested order.
Reply: II, I, III
(II: 0%, I: 28%, III: 88%)

====

Target: RORγ LBD (Homo sapiens (Human))
Assay: ROR gamma radio-ligand binding assay (3H 25-Hydroxycholesterol competitive displacement, dextran charcoal method)
Details: 1 μM compound
assay_endpoint: inhibition at 1 µM (%)

{"compound": "CCS(=O)(=O)c1ccc(CC(=O)Nc2cc3c(cn2)C(=O)C(C)(c2cc(C)nc(C)n2)CC3)cc1 (stereo not shown)", "target_entity": "RORγ LBD (Homo sapiens (Human))", "unit_abbrev": "%", "inhibition at 1 µM": 79}
{"compound": "CCS(=O)(=O)c1ccc(CC(=O)Nc2ccc3c(n2)CC(C)(C)C(c2ncccc2O)C3=O)cc1 (stereo not shown)", "target_entity": "RORγ LBD (Homo sapiens (Human))", "unit_abbrev": "%", "inhibition at 1 µM": 82}
{"compound": "CCS(=O)(=O)c1ccc(CC(=O)Nc2cc(C)c3c(n2)CCC(C)(c2ccc4c(c2)ncn4C)C3=O)cc1 (stereo not shown)", "target_entity": "RORγ LBD (Homo sapiens (Human))", "unit_abbrev": "%", "inhibition at 1 µM": 82}
{"compound": "CCS(=O)(=O)c1ccc(CC(=O)Nc2cc(C)c3c(n2)CCC(C)(n2cccn2)C3=O)cc1 (stereo not shown)", "target_entity": "RORγ LBD (Homo sapiens (Human))", "unit_abbrev": "%", "inhibition at 1 µM": 82}
